measured on: T1, HLA-DRB4 (HLA-DRB4*01:01) (human)
T1 construct: mature; purified from homozygous EBV-transformed lymphoblastoid cells with antibody L243
procedure summary: competition ELISA vs biotin-E2/E168
No end group written: not given here.
quantity: relative affinity
Numbers only.

Sample answers from the record:
{"binder": "NTYTKHQIRQMEMKI-NH2 [CCNB1 275-289]", "relative affinity": 80}
{"binder": "KKLPKPLEKVPMLVP-NH2 [CCNB1 77-91]", "relative affinity": 75}
{"binder": "EKLSPEPILVDTASP-NH2 [CCNB1 113-127]", "relative affinity": 231}
{"binder": "NCVPKKMLQLVGVTA-NH2 [CCNB1 237-251]", "relative affinity": 1400}
{"binder": "REVTGNMRAILIDWL-NH2 [CCNB1 195-209]", "relative affinity": 23}

Batch request: relative affinity per item, same order as input.
1. PNLCSEYVKDIYAYL-NH2 [CCNB1 164-178]
2. MELTMLDYDMVHFPP-NH2 [CCNB1 327-341]
3. PMLVPVPVSEPVPEP-NH2 [CCNB1 87-101]

[40, 139, 748]

// data source = patent US20180086804A1
